Data credit: ChEMBL document CHEMBL3430912

- Tested on: Leishmania donovani
- ASSAY TEXT: GSK_TCAKS: pIC50 Leishmania donovani viability assay using fluorescence intensity. Assay plates (1536-well) were prepared by adding 30nL per well of compound. For single shot assay, the final compound concentration was 5uM. […] Briefly, eGFP LdBOB axenic amastigotes were harvested, fixed and counted in a CASY cell counter (Roche-Applied Science). A final concentration of 1.5 * 10^5 cells per well were prepared in amastigote media containing 500 U/mL penicillin/streptomycin (Invitrogen) and 6uL was dispensed to each experimental well using a Multidrop Combi dispenser (Thermo Scientific). 6uL of assay media was dispensed to control columns used as reference for 100% compound response. Following incubation for 72 h at 37C, 5% CO2, 2 uL of resazurin was added to each well at a final concentration of 0.5 mM in phosphate buffered saline (PBS) with IGEPAL (Sigma-Aldrich), 0.05% (v/v).
- Assay type: functional, organism-based
Lab note: anything with IC50 below 8 µM is marked y; values at 8 µM or higher are marked n.

>  <MOLECULE>
COc1cccc(Nc2cc(C)nc(-c3ccccn3)n2)c1

>  <LABEL CLASS>
y

$$$$
>  <MOLECULE>
CN(C)S(=O)(=O)c1cccc(C(=O)Nc2nc(-c3ccccn3)cs2)c1

>  <LABEL CLASS>
y

$$$$
>  <MOLECULE>
CCC(=O)Nc1ccccc1C(=O)Nc1ccccn1

>  <LABEL CLASS>
n

$$$$
>  <MOLECULE>
c1ccc2c(CCOc3nccnc3-c3ccncc3)c[nH]c2c1

>  <LABEL CLASS>
y

$$$$
>  <MOLECULE>
CNc1nc(C)nc(N2CCc3cc(C(=O)NCc4ccc(-c5cc[nH]n5)cc4Cl)ccc32)n1

>  <LABEL CLASS>
y

$$$$
>  <MOLECULE>
Cc1cc(C)c(C#N)c(SCC(=O)c2ccc3c(c2)OCO3)n1

>  <LABEL CLASS>
n

$$$$
>  <MOLECULE>
CNc1cncc(C2CCCN2C(=O)Cc2ccc3ccccc3c2)n1 (centres undefined)

>  <LABEL CLASS>
n

$$$$
>  <MOLECULE>
O=C1NCCn2ccc(Nc3nc(N[C@H]4CC[C@H](O)CC4)ncc3Cl)c21

>  <LABEL CLASS>
y

$$$$
>  <MOLECULE>
Cc1c(C(=O)NCCCCn2ccnc2)oc2c(C)cccc12

>  <LABEL CLASS>
n

$$$$
>  <MOLECULE>
O=C(c1ccc(O)c(Cl)c1)N1CCN(c2cnccn2)CC1

>  <LABEL CLASS>
y

$$$$
>  <MOLECULE>
O=[N+]([O-])c1cccc(Nc2cncc(-c3ccccc3CO)c2)c1

>  <LABEL CLASS>
n

$$$$
>  <MOLECULE>
O=C(c1cccc(Nc2ncc(-c3ccc4c(c3)OCO4)cn2)c1)N1CCSC1

>  <LABEL CLASS>
y

$$$$
>  <MOLECULE>
O=C1CN(C2CCCc3c(OCc4ccncc4)cccc32)C(=O)N1C1CCCCC1 (centres undefined)

>  <LABEL CLASS>
n

$$$$
>  <MOLECULE>
O=C(NC(CO)c1ccc(F)cc1)c1ccc(-c2c[nH]c3ncccc23)s1 (centres undefined)

>  <LABEL CLASS>
n

$$$$
>  <MOLECULE>
Cn1nc([N+](=O)[O-])nc1N1CCCCC1

>  <LABEL CLASS>
n

$$$$
>  <MOLECULE>
Cc1ccc2onc(Nc3ccnc(Nc4cccc(S(C)(=O)=O)c4)n3)c2c1

>  <LABEL CLASS>
y

$$$$
>  <MOLECULE>
CN(CCOc1ccc(Cl)cc1)Cc1nc(N)nc(N(C)C)n1

>  <LABEL CLASS>
n

$$$$
>  <MOLECULE>
Cn1nc([N+](=O)[O-])nc1Oc1ccc(C(=O)c2ccccc2)cc1

>  <LABEL CLASS>
n

$$$$
>  <MOLECULE>
CC1=NN(C(=O)CCn2cnc([N+](=O)[O-])n2)C(O)(C(F)(F)F)C1 (centres undefined)

>  <LABEL CLASS>
n

$$$$
>  <MOLECULE>
COc1ccc(-c2nc3ncccc3o2)cc1NC(=O)c1cccs1

>  <LABEL CLASS>
y

$$$$
>  <MOLECULE>
NS(=O)(=O)c1ccc(Nc2ncc3cccc(OC4CCNCC4)c3n2)cc1

>  <LABEL CLASS>
n

$$$$
>  <MOLECULE>
N#Cc1cnc(Nc2cccc(CCN3CCOCC3)c2)nc1Nc1ccccc1C(N)=O

>  <LABEL CLASS>
y

$$$$
>  <MOLECULE>
COc1ccc2nc(N(Cc3cccnc3)C(=O)C3CCC3)sc2c1

>  <LABEL CLASS>
n

$$$$
>  <MOLECULE>
Oc1c(-c2nnc(CCc3ccccc3)[nH]2)ncc2cccnc12

>  <LABEL CLASS>
y

$$$$
>  <MOLECULE>
NS(=O)(=O)c1ccc(Nc2nccc(-c3cnn4ncccc34)n2)cc1

>  <LABEL CLASS>
y

$$$$
>  <MOLECULE>
CC(C)(C)CC(=O)NCc1noc(COc2ccccc2)n1

>  <LABEL CLASS>
n

$$$$
>  <MOLECULE>
O=c1[nH]cnc2c([C@@H]3O[C@H](CO)[C@@H](O)[C@H]3O)n[nH]c12 [FORMYCIN B]

>  <LABEL CLASS>
y

$$$$
>  <MOLECULE>
COc1ccnc2[nH]cc(-c3cc(C(=O)N[C@H](CO)c4ccccc4)co3)c12

>  <LABEL CLASS>
n

$$$$
>  <MOLECULE>
O=C(NCCc1n[nH]c(-c2ccc(F)c(F)c2)n1)C1CCCCC1

>  <LABEL CLASS>
n

$$$$
>  <MOLECULE>
COc1ccc(C2C3CCCCC3(O)CCN2CC(=O)Nc2ccc(Cl)cc2Cl)cc1 (centres undefined)

>  <LABEL CLASS>
y

$$$$
>  <MOLECULE>
Cc1cc(NC(=O)C2CCCCC2)n(-c2nc3c(c(=O)[nH]2)CCC3)n1

>  <LABEL CLASS>
y

$$$$
>  <MOLECULE>
COc1ncc(-c2ccc3nccc(-c4ccncc4)c3c2)cc1NS(C)(=O)=O

>  <LABEL CLASS>
y

$$$$
>  <MOLECULE>
CC(Cn1ccnc1)NC(=O)C=Cc1ccc(Cl)cc1 (centres undefined)

>  <LABEL CLASS>
n

$$$$
>  <MOLECULE>
CNC(=O)Oc1ccc(C(=O)NCc2ccccc2)cc1OC(=O)NC

>  <LABEL CLASS>
n

$$$$
>  <MOLECULE>
COc1cccc(CCNC(=O)C(c2cn[nH]c2)N2CCN(c3ccc(Cl)cc3)CC2)c1 (centres undefined)

>  <LABEL CLASS>
n

$$$$
>  <MOLECULE>
COc1ccc2ncc(=O)n(CCN3CCOC(CNCc4ccc(C(F)(F)F)cc4F)C3)c2n1 (centres undefined)

>  <LABEL CLASS>
n

$$$$
>  <MOLECULE>
CN(C)c1ncc(-c2cncn2CCOc2ccc(Cl)cc2)cn1

>  <LABEL CLASS>
n

$$$$
>  <MOLECULE>
Fc1ccc(Nc2nc(-c3ccccn3)cs2)cc1

>  <LABEL CLASS>
n

$$$$
>  <MOLECULE>
c1ccc(CNc2cccc3ccncc23)cc1

>  <LABEL CLASS>
n

$$$$
>  <MOLECULE>
Cc1ccccc1NS(=O)(=O)c1ccc2[nH]cc(C(=O)NC3CCCC(C)C3C)c(=O)c2c1 (centres undefined)

>  <LABEL CLASS>
n

$$$$
>  <MOLECULE>
O=C(Nc1nnc(-c2ccccn2)[nH]1)C1CC1c1ccccc1 (centres undefined)

>  <LABEL CLASS>
n

$$$$
>  <MOLECULE>
O=C(Nc1ncc([N+](=O)[O-])s1)C1CC1

>  <LABEL CLASS>
n

$$$$
